Where these numbers come from: patent US20250011363A1

# assayed target: acetylcholine receptor
# assay method text: SPR, receptor immobilized, peptide 10 uM
reported metric: Binding affinity (RU)
Just the number please, in RU, no unit attached.

Previously resolved entries follow.
| binder | unit spec | Binding affinity |
| --- | --- | --- |
| RQFYKR [6mer-2-152] | RU | 139 |
| RVYSRR [6mer-2-153] | RU | 124 |

Q: Look up Binding affinity for this binder: KLLRKR [6mer-2-174]
Result: 142

Q: Look up Binding affinity for this binder: KWISKR [6mer-2-193]
Result: 127

Q: Look up Binding affinity for this binder: KWVSRR [6mer-2-184]
Result: 136

Q: Look up Binding affinity for this binder: RQYYKK [6mer-2-145]
Result: 128

Q: Look up Binding affinity for this binder: KRQRRK [6mer-2-164]
Result: 135

Q: Look up Binding affinity for this binder: KLRLRK [6mer-2-194]
Result: 154
